// provenance: the supplement of paper PMC10567573

Would you kindly list protein stability index for each of these variants?
B1: GMCL1 (parent)
chain: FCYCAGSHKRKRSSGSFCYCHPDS

variants of: B1; test: protein stability index of a GFP-peptide fusion (GPS, HEK-293T) (PSI 1-6); higher = more stable; details: c terminus: a fixed tail appended;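 also: lentivirally expressed fusions sorted by FACS into six bins by GFP to DsRed ratio, PSI derived from sequencing read proportions per bin multiplied by bin number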
Answers are plain numbers.

Would you please look over these solved cases?
P22R; 2.1
K9H; 1.86
F17K; 2.17
K11N; 1.93
R10L; 1.99
A5E; 2.33
G6Y; 2.59
K11P; 2.31
H21D; 2.47
F1I; 3.79

Items follow; give protein stability index for each.
1. S16K
2. S7R
3. F1M
4. C18V
5. D23F
6. Y3D

*A*
1. 3.24
2. 2.34
3. 3.46
4. 1.83
5. 2.06
6. 2.2

Items follow; give protein stability index for each.
1. C20E
2. P22I
3. K9I

*A*
1: 1.88; 2: 1.47; 3: 1.94

Items follow; give protein stability index for each.
1. C4G
2. A5C
3. F17A
4. S14Q
5. C20Y
6. K9A
7. R10P

*A*
1.7
1.65
2.11
1.89
1.71
1.63
1.9

Items follow; give protein stability index for each.
1. S13T
2. S24A

*A*
1. 2.11
2. 1.94
